system: kochia (Kochia scoparia); assay: Test C greenhouse herbicide test, postemergence; assay type: in vivo; conditions: postemergence, 62 g ai/ha; scale 0 to 100, 0 no effect, 100 complete control
// values below are reported Kochia plant response rating
Lab note: record the figure alone, no unit after it.

Record excerpt, results attached:
[[record]]
molecule_smiles = "Cc1ccc(-c2c(O)c(Br)nn(C)c2=O)c2ccccc12"
measured_result = 0

[[record]]
molecule_smiles = "CC(=O)Oc1c(C)nn(C)c(=O)c1-c1ccc(F)c2ccccc12"
measured_result = 100

[[record]]
molecule_smiles = "COc1nn(C)c(=O)c(-c2c(C)ccc3ccccc23)c1O"
measured_result = 90

[[record]]
molecule_smiles = "CCOC(=O)Oc1c(C)nn(C)c(=O)c1-c1c(C)sc2ccc(C)cc12"
measured_result = 90


Given the compound Cc1cc(C)c2ccccc2c1-c1c(O)cnn(C)c1=O , write its reported Kochia plant response rating.
15

====

test system: kochia (Kochia scoparia); assay: Test C greenhouse herbicide test, postemergence; format: in vivo; details: Postemergence, 31 g ai/ha; scale 0 to 100 (0 no effect, 100 complete control)
Reported Property: Plant response rating, Kochia
Lab note: record the figure alone, no unit after it.

Record excerpt, results attached:
[[record]]
molecule_smiles = "COC(=O)Oc1c(C)nn(C)c(=O)c1-c1c([N+](=O)[O-])ccc2ccccc12"
measured_result = 70

[[record]]
molecule_smiles = "CCC(=O)Oc1c(C)nn(C)c(=O)c1-c1ccc(Br)c2ccccc12"
measured_result = 98

[[record]]
molecule_smiles = "COC(=O)Oc1c(Br)nn(C)c(=O)c1-c1c(C)ccc2ccccc12"
measured_result = 100

[[record]]
molecule_smiles = "Cc1nn(C)c(=O)c(-c2ccc(F)c3ccccc23)c1OC(=O)CC(F)(F)F"
measured_result = 95

[[record]]
molecule_smiles = "CCCC(=O)Oc1c(C)nn(C)c(=O)c1-c1c(C)sc2c(C)cc(C)cc12"
measured_result = 70


Given the compound Cc1ccc2ccccc2c1-c1c(O)c(Cl)nn(C)c1=O , write its reported Plant response rating, Kochia.
85

Given the compound CCC(=O)Oc1c(C)nn(C)c(=O)c1-c1c(C)sc2ccc(Cl)cc12 , write its reported Plant response rating, Kochia.
95

====

test system: canarygrass (Phalaris minor); assay: Test D controlled growth environment herbicide test, pre- and postemergence; assay type: in vivo; conditions: Preemergence, 125 g ai/ha; scale 0 to 100 (0 no effect, 100 complete control)
Reported Property: Plant response rating, Canarygrass
Lab note: record the figure alone, no unit after it.

Record excerpt, results attached:
[[record]]
molecule_smiles = "Cc1ccc2sc(C)c(-c3c(O)c(C)nn(C)c3=O)c2c1"
reported_property = "Plant response rating, Canarygrass"
measured_result = 85

[[record]]
molecule_smiles = "CC(=O)Oc1c(C)nn(C)c(=O)c1-c1c(C)sc2c(C)cc(C)cc12"
reported_property = "Plant response rating, Canarygrass"
measured_result = 100

[[record]]
molecule_smiles = "CCC(=O)Oc1c(C)nn(C)c(=O)c1-c1c(C)sc2ccc(C)cc12"
reported_property = "Plant response rating, Canarygrass"
measured_result = 100


We next turn to a different compound, shown below.
Given the compound Cc1cc(C)c2sc(C)c(-c3c(OC(=O)OC(C)C)c(C)nn(C)c3=O)c2c1 , write its reported Plant response rating, Canarygrass.
90

====

// values below are reported Plant response rating, Johnsongrass
tested on: johnsongrass (Sorghum halepense); assay: Test C greenhouse herbicide test, pre- and postemergence; type: in vivo; settings: Postemergence, 250 g ai/ha; scale 0 to 100, 0 no effect, 100 complete control; 13 to 15 d
Lab note: record the figure alone, no unit after it.

[[record]]
molecule_smiles = "Cc1nn(C)c(=O)c(-c2cccc3ccc(C#N)cc23)c1O"
reported_property = "Plant response rating, Johnsongrass"
measured_result = 15

[[record]]
molecule_smiles = "CCOC(=O)Oc1c(C)nn(C)c(=O)c1-c1c(C)sc2ccc(C)cc12"
reported_property = "Plant response rating, Johnsongrass"
measured_result = 10

[[record]]
molecule_smiles = "CCOC(=O)Oc1c(C)nn(C)c(=O)c1-c1c(CC)ccc2ccccc12"
reported_property = "Plant response rating, Johnsongrass"
measured_result = 35


Given the compound Cc1nn(C)c(=O)c(-c2cc(F)cc3ccccc23)c1OS(C)(=O)=O , write its reported Plant response rating, Johnsongrass.
20

Given the compound COc1nn(C)c(=O)c(-c2c(C)sc3ccc(Cl)cc23)c1O , write its reported Plant response rating, Johnsongrass.
10

Given the compound Cc1nn(C)c(=O)c(-c2c(C)sc3ccc(Cl)cc23)c1O , write its reported Plant response rating, Johnsongrass.
5

Given the compound CC(=O)Oc1c(C)nn(C)c(=O)c1-c1c(C)oc2c(C)cc(C)cc12 , write its reported Plant response rating, Johnsongrass.
5

Given the compound Cc1cc(C)c2ccccc2c1-c1c(OS(C)(=O)=O)c(C)nn(C)c1=O , write its reported Plant response rating, Johnsongrass.
20

Given the compound CCC(=O)Oc1c(C)nn(C)c(=O)c1-c1c(C)sc2ccc(C)cc12 , write its reported Plant response rating, Johnsongrass.
25

Given the compound CCC(=O)Oc1c(Cl)nn(C)c(=O)c1-c1c(C)sc2ccc(Cl)cc12 , write its reported Plant response rating, Johnsongrass.
10

====

test system: barley, winter (winter barley, Hordeum vulgare); assay: Test D controlled growth environment herbicide test, pre- and postemergence; assay type: in vivo; conditions: Postemergence, 31 g ai/ha; scale 0 to 100 (0 no effect, 100 complete control)
Reported Property: Barley, Winter plant response rating
Lab note: record the figure alone, no unit after it.

[[record]]
molecule_smiles = "Cc1cc(C)c2sc(C)c(-c3c(OC(=O)OC(C)C)c(C)nn(C)c3=O)c2c1"
measured_result = 0


Param request: Barley, Winter plant response rating | system barley, winter (winter barley, Hordeum vulgare) | item CC(=O)Oc1c(Br)nn(C)c(=O)c1-c1c(C)ccc2ccccc12
10

Param request: Barley, Winter plant response rating | system barley, winter (winter barley, Hordeum vulgare) | item CCC(=O)Oc1c(C)nn(C)c(=O)c1-c1c(C)sc2ccc(Cl)cc12
5

Param request: Barley, Winter plant response rating | system barley, winter (winter barley, Hordeum vulgare) | item Cc1ccc2ccc(C)c(-c3c(O)c(C)nn(C)c3=O)c2c1
10

====

// values below are reported pest or weed control at 125 g/ha
tested on: barnyardgrass (Echinochloa crus-galli); experiment: Test A greenhouse herbicide test, pre- and postemergence; type: in vivo; settings: Echinochloa crus-galli, pre-emergence, 240 h; Preemergence, 125 g ai/ha; 0 to 100 scale where 0 is no effect and 100 is complete control; read-out: Barnyardgrass plant response rating
Give just the number in %; leave the unit off.

Record excerpt, results attached:
[[record]]
molecule = "CCc1sc2cc(C)cc(C)c2c1-c1c(O)c(C)nn(C)c1=O [Compound 19]"
result_unit = "%"
measured_result = 30

[[record]]
molecule = "CC(=O)Oc1c(C)nn(C)c(=O)c1-c1c(C)oc2ccc(C)cc12 [Compound 14]"
result_unit = "%"
measured_result = 0

[[record]]
molecule = "CC(=O)Oc1c(C)nn(C)c(=O)c1-c1c(C)oc2c(C)cccc12 [Compound 15]"
result_unit = "%"
measured_result = 20


Given the molecule CC(=O)Oc1c(C)nn(C)c(=O)c1-c1c(C)oc2c(C)cc(C)cc12 [Compound 16] , write its reported pest or weed control at 125 g/ha.
10

====

system: johnsongrass (Sorghum halepense); assay: Test C greenhouse herbicide test, pre- and postemergence; type: in vivo; details: Postemergence, 31 g ai/ha; 0 to 100 scale (0 no effect, 100 complete control)
// values below are reported Johnsongrass plant response rating
Lab note: record the figure alone, no unit after it.

[[record]]
molecule_smiles = "CC(=O)Oc1c(C)nn(C)c(=O)c1-c1c(C)sc2c(C)cc(C)cc12"
reported_property = "Johnsongrass plant response rating"
measured_result = 10

[[record]]
molecule_smiles = "Cc1cc(C)c2ccccc2c1-c1c(O)cnn(C)c1=O"
reported_property = "Johnsongrass plant response rating"
measured_result = 0

[[record]]
molecule_smiles = "Cc1ccc2ccccc2c1-c1c(O)c(C)nn(C)c1=O"
reported_property = "Johnsongrass plant response rating"
measured_result = 5

[[record]]
molecule_smiles = "Cc1ccc2ccccc2c1-c1c(O)cnn(C)c1=O"
reported_property = "Johnsongrass plant response rating"
measured_result = 0


We next turn to a different compound, shown below.
Given the compound CCOC(=O)Oc1c(C)nn(C)c(=O)c1-c1c(CC)ccc2ccccc12 , write its reported Johnsongrass plant response rating.
0

====

system: beggarticks (hairy beggarticks, Bidens pilosa); assay: Test E greenhouse herbicide test, pre- and postemergence; format: in vivo; details: 125 g ai/ha, Postemergence; scale 0 to 100 (0 no effect, 100 complete control)
Source text: […]
// values below are reported Plant response rating, Beggarticks
Lab note: record the figure alone, no unit after it.

Record excerpt, results attached:
[[record]]
molecule_smiles = "CC(=O)Oc1c(C)nn(C)c(=O)c1-c1ccc(F)c2ccccc12"
measured_result = 100

[[record]]
molecule_smiles = "COc1nn(C)c(=O)c(-c2c(C)sc3ccc(Cl)cc23)c1O"
measured_result = 90

[[record]]
molecule_smiles = "Cc1cc(C)c2sc(C)c(-c3c(OC(=O)OCCCl)c(C)nn(C)c3=O)c2c1"
measured_result = 100

[[record]]
molecule_smiles = "COC(=O)Oc1c(C)nn(C)c(=O)c1-c1c(C)sc2c(C)cc(C)cc12"
measured_result = 100


We next turn to a different molecule, shown below.
Given the molecule CCOC(=O)Oc1c(C)nn(C)c(=O)c1-c1c(C)sc2c(C)cc(C)cc12 , write its reported Plant response rating, Beggarticks.
100
